Origin of measurements: patent US20230312601A1

Could you please report measured MAP (%) for the items listed next?
- Test system: male Sprague-Dawley rats
- run.description: Cardiovascular Assay in anesthetized rats
- Format: in vivo
- condition.info: change from vehicle, dose 30 mg/kg, rat
Answers are plain numbers, in %.

CO[C@@H](C)c1c(Nc2ccc([C@H](N(C)C(=O)C3CCS(=O)(=O)CC3)C(F)(F)F)cc2)cnc2sc(C)nc12: −16
CO[C@@H](C)c1c(Nc2ccc([C@H](N(C)C(=O)C3CCS(=O)(=O)CC3)C(F)(F)F)cc2)cnc2cc(Cl)nn12 [Comparative Example A, reference compound]: −22
CO[C@@H](C)c1c(Nc2ccc([C@H](N(C)C(=O)C3CCN(C(C)=O)CC3)C(F)(F)F)cc2)cnc2sc(C)nc12: −2

Batch request: MAP (%) per item, same order as input.
1. CO[C@H](c1c(Nc2ccc([C@H](N(C)C(=O)C3CCS(=O)(=O)CC3)C(F)(F)F)cc2)cnc2sc(C)nc12)C(F)F
2. CO[C@@H](c1c(Nc2ccc([C@H](N(C)C(=O)C3CCN(C(C)=O)CC3)C(F)(F)F)cc2)cnc2sc(C)nc12)C(F)F

1. −13
2. −9

---

- System: male Sprague-Dawley rats
- run.description: Cardiovascular Assay in anesthetized rats
- Assay type: in vivo
- condition.info: plasma at end of infusion, dose 3 mg/kg, rat
measurement.label: Drug (μg/mL SEM) (µg/mL)
One number for each entry, in µg/mL.

CO[C@@H](c1c(Nc2ccc([C@H](N(C)C(=O)C3CCN(C(C)=O)CC3)C(F)(F)F)cc2)cnc2sc(C)nc12)C(F)F: 2.52

Hey, can you go through the list below and give me Drug (μg/mL SEM) for every item?
1. CO[C@H](c1c(Nc2ccc([C@H](N(C)C(=O)C3CCS(=O)(=O)CC3)C(F)(F)F)cc2)cnc2sc(C)nc12)C(F)F
2. CO[C@@H](C)c1c(Nc2ccc([C@H](N(C)C(=O)C3CCS(=O)(=O)CC3)C(F)(F)F)cc2)cnc2sc(C)nc12
3. CO[C@@H](C)c1c(Nc2ccc([C@H](N(C)C(=O)C3CCN(C(C)=O)CC3)C(F)(F)F)cc2)cnc2sc(C)nc12
4. CO[C@@H](C)c1c(Nc2ccc([C@H](N(C)C(=O)C3CCS(=O)(=O)CC3)C(F)(F)F)cc2)cnc2cc(Cl)nn12 [Comparative Example A, reference compound]

1. 2.18
2. 2.32
3. 2.51
4. 1.45

---

- Tested on: CYP3A4 mRNA
- run.description: CYP3A4 Induction Assay (qPCR, human hepatocytes)
- Type: in vitro ADME
- condition.info: cryopreserved human hepatocytes (plated), 10 μM compound, mRNA fold over vehicle (0.1% DMSO)
Provide the reported fold induction at 1 day, 10 µM of each item.

Consider the worked cases shown below.
CCN(C(=O)C1CCS(=O)(=O)CC1)[C@@H](c1ccc(Nc2cnc3sc(C)nc3c2[C@H](C)OC)cc1)C(F)(F)F: 1.93
CO[C@H](c1c(Nc2ccc([C@H](N(C)C(=O)C3CCS(=O)(=O)CC3)C(F)(F)F)cc2)cnc2sc(C)nc12)C(F)F: 1.12
CO[C@H](c1c(Nc2ccc([C@@H](C(F)F)N(C)C(=O)C3CCS(=O)(=O)CC3)cc2)cnc2sc(C)nc12)C(F)(F)F: 2.71
CO[C@@H](C)c1c(Nc2ccc([C@H](N(C)C(=O)C3CCS(=O)(=O)CC3)C(F)(F)F)cc2F)cnc2sc(C)nc12 (single isomer, unassigned): 8.24
CO[C@H](C)c1c(Nc2ccc([C@H](N(C)C(=O)C3CCN(C(C)=O)CC3)C(F)(F)F)cc2)cnc2sc(C)nc12: 2.45

API: the following record is the query input.
Need fold induction at 1 day, 10 µM of Cc1nc2c([C@@H](C)C(F)(F)F)c(Nc3ccc([C@H](N(C)C(=O)C4CCS(=O)(=O)CC4)C(F)(F)F)cc3)cnc2s1 (single isomer, unassigned) , thanks.
2.72

---

- target.or.test.system: human MALT-1 protein (Homo sapiens (Human))
- Sequence (Q9UDY8 whole entry): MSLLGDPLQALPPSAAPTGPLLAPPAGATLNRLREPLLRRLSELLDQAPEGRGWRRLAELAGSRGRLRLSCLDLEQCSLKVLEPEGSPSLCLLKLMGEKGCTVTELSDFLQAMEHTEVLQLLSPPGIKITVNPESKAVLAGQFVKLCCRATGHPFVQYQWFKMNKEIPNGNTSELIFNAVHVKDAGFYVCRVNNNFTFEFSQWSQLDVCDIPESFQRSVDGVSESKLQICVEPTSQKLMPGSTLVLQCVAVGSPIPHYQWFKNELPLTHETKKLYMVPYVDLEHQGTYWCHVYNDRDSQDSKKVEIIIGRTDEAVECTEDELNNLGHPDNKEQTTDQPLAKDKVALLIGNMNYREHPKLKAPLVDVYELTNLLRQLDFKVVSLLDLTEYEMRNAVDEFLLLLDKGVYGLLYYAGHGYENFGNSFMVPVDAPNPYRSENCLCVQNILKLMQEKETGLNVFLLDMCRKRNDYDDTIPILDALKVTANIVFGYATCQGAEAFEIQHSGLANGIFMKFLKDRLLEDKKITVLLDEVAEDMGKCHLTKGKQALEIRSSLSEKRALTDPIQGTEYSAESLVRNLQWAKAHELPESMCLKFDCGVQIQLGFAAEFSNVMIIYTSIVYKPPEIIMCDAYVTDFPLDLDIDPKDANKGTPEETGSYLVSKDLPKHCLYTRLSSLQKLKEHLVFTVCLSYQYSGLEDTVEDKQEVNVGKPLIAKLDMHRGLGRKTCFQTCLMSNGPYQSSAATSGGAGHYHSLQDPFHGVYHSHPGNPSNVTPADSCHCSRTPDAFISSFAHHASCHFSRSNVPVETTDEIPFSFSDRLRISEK
- run.description: MALT-1 Biochemical Assay (Quench-FRET enzyme assay)
- condition.info: human MALT-1 6 nM, substrate 2 μM, 40 min preincubation
measurement.label: pEC50
Give bare numbers, as −log10 of the molar value.

CO[C@H](C)c1c(Nc2ccc([C@H](N(C)C(=O)C3CCS(=O)(=O)CC3)C(F)(F)F)cc2)cnc2sc(C)nc12 [Example 8]: 7.00
CO[C@@H](C)c1c(Nc2ccc([C@@H](C(F)F)N(C)C(=O)C3CCN(C(=O)CO)CC3)cc2)cnc2sc(C)nc12 [Example 28]: 6.86
CO[C@@H](C)c1c(Nc2ccc([C@H](N(C)C(=O)C3CCS(=O)(=O)CC3)C(F)(F)F)cc2)cnc2sc(C(F)F)nc12 [Example 15]: 6.99
CO[C@@H](C)c1c(Nc2ccc([C@H](N(C)C(=O)C3CCS(=O)(=O)CC3)C(F)(F)F)cc2F)cnc2sc(C)nc12 (single isomer, unassigned) [Example 10]: 6.70

Provide reported pEC50 for each item, in the same order as listed.
1. CO[C@@H](c1c(Nc2ccc([C@@H](C(F)F)N(C)C(=O)C3CCS(=O)(=O)CC3)cc2)cnc2sc(C)nc12)C(F)F [Example 13]
2. CO[C@@H](C)c1c(Nc2ccc([C@H](N(C)C(=O)C3CCN(C(=O)CO)CC3)C(F)(F)F)cc2)cnc2sc(C)nc12 [Example 20]

1: 6.71; 2: 6.92

---

Provide the reported HR (%) of each item.
- Test system: male Sprague-Dawley rats
- run.description: Cardiovascular Assay in anesthetized rats
- Assay type: in vivo
- condition.info: change from vehicle, dose 10 mg/kg, rat
Numbers only, in %.

Solved cases (4 shown):
CO[C@@H](c1c(Nc2ccc([C@H](N(C)C(=O)C3CCN(C(C)=O)CC3)C(F)(F)F)cc2)cnc2sc(C)nc12)C(F)F: −7
CO[C@@H](C)c1c(Nc2ccc([C@H](N(C)C(=O)C3CCS(=O)(=O)CC3)C(F)(F)F)cc2)cnc2sc(C)nc12: −8
CO[C@@H](C)c1c(Nc2ccc([C@H](N(C)C(=O)C3CCN(C(C)=O)CC3)C(F)(F)F)cc2)cnc2sc(C)nc12: −5
CO[C@H](c1c(Nc2ccc([C@H](N(C)C(=O)C3CCS(=O)(=O)CC3)C(F)(F)F)cc2)cnc2sc(C)nc12)C(F)F: −3

// switching to the query molecule
Quick one: HR (%) of CO[C@@H](C)c1c(Nc2ccc([C@H](N(C)C(=O)C3CCS(=O)(=O)CC3)C(F)(F)F)cc2)cnc2cc(Cl)nn12 [Comparative Example A, reference compound] ?
−11

---

Answer each item with its documented MAP (%).
- Test system: male Sprague-Dawley rats
- run.description: Cardiovascular Assay in anesthetized rats
- Type: in vivo
- condition.info: change from vehicle, dose 10 mg/kg, rat
Answers are plain numbers, in %.

CO[C@@H](C)c1c(Nc2ccc([C@H](N(C)C(=O)C3CCN(C(C)=O)CC3)C(F)(F)F)cc2)cnc2sc(C)nc12: −1
CO[C@@H](C)c1c(Nc2ccc([C@H](N(C)C(=O)C3CCS(=O)(=O)CC3)C(F)(F)F)cc2)cnc2cc(Cl)nn12 [Comparative Example A, reference compound]: −14
CO[C@@H](c1c(Nc2ccc([C@H](N(C)C(=O)C3CCN(C(C)=O)CC3)C(F)(F)F)cc2)cnc2sc(C)nc12)C(F)F: −5

Record MAP (%) for all entries; do not skip any.
1. CO[C@H](c1c(Nc2ccc([C@H](N(C)C(=O)C3CCS(=O)(=O)CC3)C(F)(F)F)cc2)cnc2sc(C)nc12)C(F)F
2. CO[C@@H](C)c1c(Nc2ccc([C@H](N(C)C(=O)C3CCS(=O)(=O)CC3)C(F)(F)F)cc2)cnc2sc(C)nc12

1. 0
2. −8

---

- Test system: OCI-LY3 IL6
- run.description: MALT-1 Cell IL-6 AlphaLISA Assay
- Type: cell-based
- condition.info: Homo sapiens; OCI-LY3 cells, 48 hours incubation; read-out: OCI-LY3 IL6 48 hour Inhibition EC50
measurement.label: EC50 (nM)
Answers are plain numbers, in nM.

Below, each entry is followed by its recorded EC50 result.
CO[C@H](c1c(Nc2ccc([C@H](N(C)C(=O)C3CCS(=O)(=O)CC3)C(F)(F)F)cc2)cnc2sc(C)nc12)C(F)F: 140
CO[C@H](C)c1c(Nc2ccc([C@H](N(C)C(=O)C3CCN(C(=O)CO)CC3)C(F)(F)F)cc2)cnc2sc(C)nc12: 190
CO[C@H](c1c(Nc2ccc([C@@H](C(F)F)N(C)C(=O)C3CCN(C(=O)CO)CC3)cc2)cnc2sc(C)nc12)C(F)(F)F: 270
CO[C@@H](C)c1c(Nc2c(F)cc([C@H](N(C)C(=O)C3CCS(=O)(=O)CC3)C(F)(F)F)cc2F)cnc2sc(C)nc12: 140

Here is another compound to look at.
Which EC50 is listed for CO[C@@H](C)c1c(Nc2ccc([C@H](N(C)C(=O)C3CCS(=O)(=O)CC3)C(F)(F)F)cc2F)cnc2sc(C)nc12 (single isomer, unassigned) ?
230
